experiment_summary: DSSTox (CPDBAS) Carcinogenic Potency Database Summary SingleCellCall Results
details: animal chronic carcinogenicity bioassays, CPDB summary call
Calls of active or inactive are those of the source.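 Rule for the calls: active = a tumor-causing dose value with its tumor site reported for any sex and species group of a rodent or other animal cancer study; inconclusive = only studies judged inadequate by the national testing program; inactive = tested in at least one study, none positive.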
Respond using exactly one of the listed classes: true = active, false = inactive

Solved cases (5 shown):
| compound | group |
| --- | --- |
| CN(C)c1ccc(N=NS(=O)(=O)O)cc1 | false |
| Cn1c(N)nc2ncc(-c3ccccc3)cc21 | true |
| CCCN(N=O)C(=N)N[N+](=O)[O-] | true |
| O=S(O)S(=O)(=O)O | false |
| C=C(C)C(=O)Nc1ccc(Cl)c(Cl)c1 | false |

Query block: Could you check what this test reported for CC(O)COC(C)(C)C (configuration not stated) ?
Result block: true

Query block: Could you check what this test reported for CC1CN1P(=O)(N1CC1C)N1CC1C (configuration not stated) ?
Result block: true

Query block: Could you check what this test reported for CCC[C@@H]1O[C@@H]2C[C@H]3[C@@H]4CCC5=CC(=O)C=C[C@]5(C)[C@H]4[C@@H](O)C[C@]3(C)[C@]2(C(=O)CO)O1 ?
Result block: true

Query block: Could you check what this test reported for CC(=O)Oc1c(C)c(C)c2c(c1C)CCC(C)(CCCC(C)CCCC(C)CCCC(C)C)O2 (configuration not stated) ?
Result block: false

Query block: Could you check what this test reported for COc1cc(/C=C/C(=O)CC(=O)/C=C/c2ccc(O)c(OC)c2)ccc1O ?
Result block: false

Query block: Could you check what this test reported for CCCCN(CC)C(=O)SCCC ?
Result block: false

Query block: Could you check what this test reported for Cc1cn([C@H]2C[C@H](N=[N+]=[N-])[C@@H](CO)O2)c(=O)[nH]c1=O ?
Result block: true
